// provenance: ChEMBL document CHEMBL4699487

- Method: AUC infinity in rat at 3 mg/kg, po
- Assay type: ADME, organism-based
- Parameters: time infinity, route oral, dose 3 mg/kg
- Condition Notes: in vivo
Assay Readout: AUC(0-inf) (ng·h/mL)
Express the result in ng·h/mL but write the number alone.

Find the recorded AUC(0-inf) belonging to Cc1c(F)c(Nc2ccc(-c3cn(C)cn3)cn2)cc2c1ncn2CC1CC1 and report it. 1780

* * *

- Method: Oral bioavailability in rat at 3 mg/kg
- Assay type: ADME, organism-based
- Condition Notes: in vivo
Assay Readout: bioavailability (%)
Express the result in % but write the number alone.

Find the recorded bioavailability belonging to Cc1c(F)c(Nc2ccc(-c3cn(C)cn3)cn2)cc2c1ncn2CC1CC1 and report it. 65
